assayed-system: T1, human GLP-1 receptor (human, UniProt P43220 24-463)
T1 construct: whole, on cells; also called hGLP-1
test-protocol: SPA displacement of [125I]-GLP-1(7-36)NH2 from human GLP-1 receptor membranes, low albumin (0.005% HSA)
pIC50: −log10 of the molar value. *1 amine or outer side, *2 acyl side, *3 side chain or, on linkers, in order; H or OH if unused. Where no end group is shown, it is not given here. Side-chain parts run from the residue outwards. [ ]: non-standard residue; d: D form. The star is where a group is joined. Dodecanoyl(12-OPh(4-COOH)) = O=C(O)c1ccc(OCCCCCCCCCCCC(=O)*)cc1; C16 diacid = O=C(O)CCCCCCCCCCCCCCC(=O)*; γGlu = O=C(O)[C@H](CCC(=O)[*:2])N[*:1]; εLys = N[C@@H](CCCCN[*:1])C(=O)[*:2]; AEEA = NCCOCCOCC(=O)O; Aib = CC(C)(N)C(=O)O
property-label: pIC50

{"columns": ["binder", "measured"],
 "data": [
  ["H[Aib]EGTFTSDVSK([εLys-AEEA-C16 diacid])YLEGQAAK([εLys-AEEA-C16 diacid])EFIAWLVQGRG (Double-acylated GLP-1 analogue; positions are counted with His as no)", "> 7.46"]
]}

Now consider the entry below.
I would be grateful if you could share the reported pIC50 for H[Aib]EGTFTSDVSK([εLys-εLys-γGlu-Dodecanoyl(12-OPh(4-COOH))])YLEGQAAK([εLys-εLys-γGlu-Dodecanoyl(12-OPh(4-COOH))])EFIAWLVQGRG (Double-acylated GLP-1 analogue; positions are counted with His as no) .
> 7.46
